System: SARS-CoV-2 USA-WA1/2020
Assay: In vitro drug efficacy in A549+ACE2 cells
Type: cell-based
Details: Severe acute respiratory syndrome coronavirus 2, A549-ACE2, 24 h
property_measured: pEC50
Answers are plain numbers, as −log10 of the molar value.

Record summary for COc1cccc2[nH]c(C(=O)N[C@@H](CC(C)C)C(=O)N[C@@H](C[C@@H]3CCNC3=O)C(=O)CO)cc12 [PF-00835231] : reported pEC50 = 6.66

----------
Assay: physchem
Conditions: 25 °C, pH 5, aqueous buffer, thermodynamic from solid, PF-00835321 Saturated Solubility
property_measured: solubility at 48 h (µg/mL)
Give bare numbers, in µg/mL.

Record summary for COc1cccc2[nH]c(C(=O)N[C@@H](CC(C)C)C(=O)N[C@@H](C[C@@H]3CCNC3=O)C(=O)CO)cc12 [PF-00835231] : reported solubility at 48 h = 200
